biological target: kinases (Homo sapiens, UniProt P00519, H396P); construct: purchased Eurofins/DiscoveRx; host or cells: E. coli BL21-derived host (T7 phage display) for most kinases; HEK-293 for the rest; experiment: KINOMEscan kinase binding assay (Eurofins/DiscoveRx), % Ctrl; details: target ABL1(H396P)-phosphorylated; 1 μM
Reported % Ctrl, ABL1(H396P)-phosphorylated values for a set of molecules
Output spec: scalar in % Ctrl, unitless text.

Answered examples (4):
- Cc1cc2c([nH]1)/C=C1\C(=O)Nc3cnc(cc31)-c1cn[nH]c1CNCCN(C)C2=O [Ex. 55]: 3.6
- Cc1nn(C)c2c1-c1ccc3c(c1)/C(=C/c1[nH]ccc1C(=O)N(C)CCCO2)C(=O)N3 [Ex. 150]: 100
- Cc1cc2c([nH]1)/C=C1\C(=O)Nc3ccc(cc31)-c1c(noc1C)CNCCN(C)C2=O [Ex. 139]: 9.5
- Cc1cc2c([nH]1)/C=C1\C(=O)Nc3cc(Cl)c(cc31)OCCO[C@@H](C(=O)N1CCN(C)CC1)CN(C)C2=O [Ex. 138]: 82

Form field: reported % Ctrl, ABL1(H396P)-phosphorylated of CN1CCSCCOc2cc3c(cc2Cl)NC(=O)/C3=C\c2[nH]ccc2C1=O [Ex. 153]
16

Then this molecule: Cc1cc2c([nH]1)/C=C1\C(=O)Nc3ccc(cc31)-c1c(C)nn(C)c1COCCN(C)C2=O [Ex. 146]
80

Then this molecule: CN1CCOCCOc2cc3c(cc2Cl)NC(=O)/C3=C\c2[nH]ccc2C1=O [Ex. 143]
11

----------
Reported % Ctrl, RET(V804M) values for a set of molecules
biological target: kinases (Homo sapiens, UniProt P07949, V804M); construct: purchased Eurofins/DiscoveRx; host or cells: E. coli BL21-derived host (T7 phage display) for most kinases; HEK-293 for the rest; experiment: KINOMEscan kinase binding assay (Eurofins/DiscoveRx), % Ctrl; conditions: target RET(V804M); 1 μM
Sequence (P07949 29-1114 V804M): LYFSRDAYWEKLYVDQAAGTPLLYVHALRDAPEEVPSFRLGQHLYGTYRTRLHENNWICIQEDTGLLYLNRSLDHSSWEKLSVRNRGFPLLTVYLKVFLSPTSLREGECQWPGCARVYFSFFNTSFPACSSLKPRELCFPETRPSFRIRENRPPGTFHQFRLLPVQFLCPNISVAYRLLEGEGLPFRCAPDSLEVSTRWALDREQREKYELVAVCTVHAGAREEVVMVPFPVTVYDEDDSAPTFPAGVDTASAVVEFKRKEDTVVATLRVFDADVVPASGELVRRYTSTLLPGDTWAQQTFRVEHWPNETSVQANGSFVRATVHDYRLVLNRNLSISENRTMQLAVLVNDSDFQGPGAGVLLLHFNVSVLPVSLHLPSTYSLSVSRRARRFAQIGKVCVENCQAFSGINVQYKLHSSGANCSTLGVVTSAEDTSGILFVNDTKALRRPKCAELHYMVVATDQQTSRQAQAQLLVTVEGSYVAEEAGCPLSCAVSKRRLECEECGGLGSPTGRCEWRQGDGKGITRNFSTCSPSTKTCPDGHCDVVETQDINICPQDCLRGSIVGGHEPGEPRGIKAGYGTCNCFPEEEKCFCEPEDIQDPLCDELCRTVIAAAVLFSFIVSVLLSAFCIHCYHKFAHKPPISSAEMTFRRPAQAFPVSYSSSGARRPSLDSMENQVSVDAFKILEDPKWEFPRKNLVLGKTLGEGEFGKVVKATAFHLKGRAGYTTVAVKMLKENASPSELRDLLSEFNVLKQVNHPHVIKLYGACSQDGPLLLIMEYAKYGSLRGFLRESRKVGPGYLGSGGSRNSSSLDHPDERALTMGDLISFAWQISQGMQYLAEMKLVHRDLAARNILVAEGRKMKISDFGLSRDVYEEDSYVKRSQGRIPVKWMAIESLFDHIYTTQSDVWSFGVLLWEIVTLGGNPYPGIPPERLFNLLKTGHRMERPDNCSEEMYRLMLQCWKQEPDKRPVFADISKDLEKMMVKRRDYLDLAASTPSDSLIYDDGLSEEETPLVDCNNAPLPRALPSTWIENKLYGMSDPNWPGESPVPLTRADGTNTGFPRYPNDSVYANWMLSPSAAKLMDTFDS
Answer with the value and then the unit.

- CN1CCSCCOc2cc3c(cc2Cl)NC(=O)/C3=C\c2[nH]ccc2C1=O: 41 % Ctrl

Form field: reported % Ctrl, RET(V804M) of `Cc1cc2c([nH]1)/C=C1\C(=O)Nc3cnc(cc31)-c1cn[nH]c1CNCCN(C)C2=O`
0.3 % Ctrl

Then this molecule: `Cc1nn(C)c2c1-c1ccc3c(c1)/C(=C/c1[nH]ccc1C(=O)N(C)CCCO2)C(=O)N3`
68 % Ctrl

----------
molecular target: kinases (Homo sapiens, UniProt P00519, E255K); construct: purchased Eurofins/DiscoveRx; host or cells: E. coli BL21-derived host (T7 phage display) for most kinases; HEK-293 for the rest; assay: KINOMEscan kinase binding assay (Eurofins/DiscoveRx), % Ctrl; conditions: target ABL1(E255K)-phosphorylated; 1 μM
Reported % Ctrl, ABL1(E255K)-phosphorylated values for a set of molecules
Output spec: scalar in % Ctrl, unitless text.

* Cc1cc2c([nH]1)/C=C1\C(=O)Nc3cc(Cl)c(cc31)OCCO[C@@H](C(=O)N1CCN(C)CC1)CN(C)C2=O | 61
* Cc1cc2c([nH]1)/C=C1\C(=O)Nc3ccc(cc31)-c1c(C)nn(C)c1COCCN(C)C2=O | 57
* Cc1cc2c([nH]1)/C=C1\C(=O)Nc3cnc(cc31)-c1cn[nH]c1CNCCN(C)C2=O | 2.6

Form field: reported % Ctrl, ABL1(E255K)-phosphorylated of `CN1CCSCCOc2cc3c(cc2Cl)NC(=O)/C3=C\c2[nH]ccc2C1=O`
8.4

Then this molecule: `Cc1nn(C)c2c1-c1ccc3c(c1)/C(=C/c1[nH]ccc1C(=O)N(C)CCCO2)C(=O)N3`
95

Then this molecule: `CN1CCOCCOc2cc3c(cc2Cl)NC(=O)/C3=C\c2[nH]ccc2C1=O`
6.4

Then this molecule: `Cc1cc2c([nH]1)/C=C1\C(=O)Nc3ccc(cc31)-c1c(noc1C)CNCCN(C)C2=O`
4.7
